The values you see were collected from the supplement of paper PMC7125110.

B1: glmS ribozyme (parent)
chain: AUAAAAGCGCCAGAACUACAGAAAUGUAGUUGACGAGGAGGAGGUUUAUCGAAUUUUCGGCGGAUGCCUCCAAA

# Variants of: B1
# assay-text: self-cleavage kobs at 2500 uM GlcN6P; higher = faster cleavage; RNA array
# condition: with glucosamine-6-phosphate
Fewer inactive variants are shown than the library holds.
# self-cleavage kobs at 2500 uM GlcN6P listing for each entry below
Give a bare numeral; the unit s⁻¹ is implied.

| sequence-change | unit-symbol | self-cleavage kobs at 2500 uM GlcN6P |
| --- | --- | --- |
| G43U C68A | s⁻¹ | 0.0175 |

Look at this variant and give its reported self-cleavage kobs at 2500 uM GlcN6P. G7U C58G C68G
0.00158

Look at this variant and give its reported self-cleavage kobs at 2500 uM GlcN6P. C11A A53U U57G C71A
0.000141

Look at this variant and give its reported self-cleavage kobs at 2500 uM GlcN6P. G13C G29U
6.58e-05

Look at this variant and give its reported self-cleavage kobs at 2500 uM GlcN6P. G29U U47G
0.000515

Look at this variant and give its reported self-cleavage kobs at 2500 uM GlcN6P. A14U U69C
0.000501
